Values compiled from PubChem BioAssay (NCI).

System: NCI-H460 lung
METHOD DESCRIPTION: NCI-60 one-dose screen, 48 h
EXPERIMENTAL CONDITIONS: 10 µM unless noted
Compounds without any hit were thinned out: in the full panel of roughly 83,000, 20% have a hit. The source made the active and inactive calls. The calls were made as follows: active = growth percent below 10; inactive = the rest.
Parameter call: string, one of yes for active, no for inactive

Previously resolved entries follow.
[[record]]
molecule = "COc1cc2c(c(OC)c1OC)C(=O)CC(c1cccc(NC(=O)c3cccc([N+](=O)[O-])c3)c1)O2 (centres undefined)"
assigned_class = "no"

[[record]]
molecule = "COc1cc(OC)c2c3nc4cc(C)c(C)cc4nc3n(CCN(C)C)c2c1"
assigned_class = "no"

[[record]]
molecule = "Nc1nnc(-c2c[nH]c3ccc(Br)cc23)c(-c2c[nH]c3ncc(Br)cc23)n1"
assigned_class = "no"

[[record]]
molecule = "Cn1cc(-c2cc(N)n3nc(-c4c[nH]c5ccccc45)cc3n2)c2cccnc21"
assigned_class = "yes"

[[record]]
molecule = "C#CCOc1ccc(/C=N/Nc2nc(-c3ccc(Cl)cc3)cs2)cc1OC"
assigned_class = "no"

[[record]]
molecule = "Cc1ccc(C(=O)C(c2c[nH]c3ccccc23)c2c[nH]c3ccccc23)cc1"
assigned_class = "yes"

[[record]]
molecule = "CCOC(=O)c1ccc(Nc2nc(NN)nc(-c3ccc(OC)cc3)c2C#N)cc1"
assigned_class = "no"

[[record]]
molecule = "COc1ccc(/C=C2\\C(=O)Nc3ccc(Cl)cc32)cc1OCc1ccccn1"
assigned_class = "no"


Could you now consider this next molecule?
Returns: the outcome recorded for CC1(C)CC[C@]2(C(=O)O)CC[C@]3(C)C(=CCC4[C@@]5(C)C[C@@H](O)[C@@H]6OC(c7ccccc7F)OC[C@@]6(C)C5CC[C@]43C)C2C1 (some centres undefined) in this assay.
yes
